- assayDetails: ATG_DR4_LXR_CIS: Attagene CIS-FACTORIAL HepG2 Assay for human Liver X Receptor (LXR), DR4 submotif (AID 2282929)
- assaySetup: HepG2 Attagene DR4 cis-reporter, mRNA transcription; actives raise or lower the signal
- Protocol: ATG_CIS is a cell-based, multiplexed-readout assay that uses HepG2, a human liver cell line, with measurements taken at 24 hours after chemical dosing in a 24-well plate.ATG_DR4_LXR_CIS is one of 52 assay component(s) measured or calculated from the ATG_CIS assay. […] This assay endpoint, ATG_DR4_LXR_CIS, was analyzed with bidirectional fitting relative to DMSO as the negative control and baseline of activity. […]
Active and inactive are the calls of the source. The calls were made as follows: active = hit-call score of the fitted dose curve at least 0.9, where 1 is the maximum; inactive = score below 0.9.
Classes used: active, inactive

[[record]]
compound = "OCC=Cc1ccccc1"
group = "inactive"

[[record]]
compound = "O=S(=O)(O)CCCN1CCOCC1"
group = "inactive"

[[record]]
compound = "CC1=C(C=O)C(C)(C)CCC1"
group = "inactive"

[[record]]
compound = "CCCCCCCCOC(C)=O"
group = "inactive"

[[record]]
compound = "CC(=O)C1C(=O)C=C(C)OC1=O (stereo unspecified)"
group = "inactive"

[[record]]
compound = "CC(=N[Si](C)(C)C)O[Si](C)(C)C"
group = "inactive"

[[record]]
compound = "CCCC1CCC(=O)CC1"
group = "inactive"

[[record]]
compound = "CCCCOCCOC(=O)c1ccccc1C(=O)OCCOCCCC"
group = "active"

[[record]]
compound = "COc1ccc2[nH]cc(CCNC(C)=O)c2c1"
group = "inactive"

[[record]]
compound = "CC(=O)CCC(=O)O"
group = "inactive"

[[record]]
compound = "CC1=CC(O)CC(C)(C)C1 (stereo unspecified)"
group = "inactive"

[[record]]
compound = "CC(C)(C)c1ccc(S)cc1"
group = "inactive"

[[record]]
compound = "CN(C)c1ccc(C=O)cc1"
group = "inactive"

[[record]]
compound = "CC(C)(CO)CO"
group = "inactive"

[[record]]
compound = "CC(C)N1C(=O)c2ccccc2C1=O"
group = "inactive"

[[record]]
compound = "c1ccc(Cc2ccccc2)cc1"
group = "inactive"

